Reported # of individuals of 14 with positive BAT test values are given for each entry in this list.
- Test system: basophils in whole blood from HDM allergic donors
- experimental protocol: Basophil Activation Test (BAT)
- Format: cell-based, human
- conditions: 10 ng/ml; blood from HDM allergic individuals (n=14)
- Procedure: Basophil Activation Test (BAT) was used as a predictive in vitro assay for indication of safety/immediate hypersensitivity reactions. The BAT assay is a widely used diagnostic test that is also used for evaluation of allergenicity of allergen derived components. In short: whole blood from HDM allergic donors was stimulated for 1 h with the proteins, and the increased expression of activation markers on the surface of basophils were measured by flow cytometry. […]
assay metric: # of individuals of 14 with positive BAT test

[[record]]
molecule = "A022: house dust mite protein; SEQ ID NO: 19 (Der f), 20 (Der p), 317 (Blo t) (protein) NWQMVWQDEFNGGHLDQNHWEFETGGGGWGNNELEFYTANRSQNVRVENGHLVIDVRVESYGGRDFTSGRIHSKQAWAYGKFEARARLPSGHHLWPAIWMFPRDSKYGPWAASGEIDIMEYRGDVHDKIEGTIHYGGQWPNNIYTGSGPHHFNVDFSKDFHNFAVEWDTKEIRWYMDGNKYFSVNIDRNMWSGKGNNPYNKNGQPFDQPFRWILNVAVGGNFFGPGPYVTPDQARHWQKHTMEIDYVRVYQWR"
readout_number = 0

[[record]]
molecule = "Derp2: major house dust mite allergen, group 2, Dermatophagoides pteronyssinus; control (protein, UniProt P49278 18-146, looked up) Mite group 2 allergen Der p 2: DQVDVKDCANHEIKKVLVPGCHGSEPCIIHRGKPFQLEAVFEANQNTKTAKIEIKASIDGLEVDVPGIDPNACHYMKCPLVKGQQYDIKYTWNVPKIAPKSENVVVTVKVMGDDGVLACAIATHAKIRD"
readout_number = 13

[[record]]
molecule = "A016: house dust mite protein; SEQ ID NO: 28 (Der f), 29 (Der p) (protein) MVKIGINGFGRIGRLVLRAAIKKGVEVAAINDPFLDVKYMVYMFKFDSTHGRYQGEVKEEGGLLVVDGQKIQVFQERNPAEIPWGKVGADYVVESTGVFTTIEKAKAHLAGGAKKVIISAPSADAPMYVMGVNHDKYDPKQQIISNASCTTNCLAPLAKVINDKFGIENGLMTTVHAITATQKTVDGPSGKLWRDGRGAGQNIIPASTGAAKAVGKVIPELNGKLTGMALRVPVPDVSVVDLTVTLKNPASYDEIKAAVKAAAESDHWKGILEYTDEEVVSSDFISDTHSSIFDAKAGIALTPTFVKLIAWYDNEFGYSNRVVDLIKYVASK"
readout_number = 0

[[record]]
molecule = "A024: house dust mite protein; SEQ ID NO: 11 (Der f), 12 (Der p), 318 (Blo t) (protein) MSISAHGGGLVNGIAGMENKFTVFTSGKPVSGLTVAFEGPTKPEINFNSTKDGSVDVGYIPKAGGQYKIHIKYEGKEIVGSPFKCNISGDESTHRKLTEKVKVGGPNISTGKVNQDNQLTIDCKEAGITGGISFAMEGPAKVEVSFRNNNDGTITVIYKPPTPGDYKLHLKFNDIHLPGSPYPIVVSA"
readout_number = 2

